Reported values of SPOT peptide array binding signal intensity for individual entries
target.or.test.system: SpSla1-D3
assay.explanation: SPOT peptide array binding signal intensity (averaged, normalized) (arbitrary units (background-subtracted, floor 0; scale differs between SH3 domains)); higher = stronger binding of the SH3 domain to the peptide
metric.name: SPOT peptide array binding signal intensity

INSERT INTO measurements (binder, val) VALUES
  ('RLPAPPPPPRRGPAP', '≤ 0'),
  ('NPTKSPPPPPSPSTM', '≤ 0'),
  ('PPIPIVPSSPAPPLP', '≤ 0');

From: the supplement of paper PMC4466140
